# assay_remarks: Pharmacokinetics after intra-duodenal injection (ID) in anesthetized rats, model mimicking enteric-coated oral dosage form, plasma LC-MS
# Assay type: in vivo, rat
# applied_conditions: rat, plasma, other: intra-duodenal injection (ID), 3 mg, pH 3.5, ID 0.3 ml B [10 mg/ml, 10 mg/ml LLC, 400 mM Citrate pH 3.5, 150 mM NaCl]; Mean PK Values (average of individual PK parameters); read-out: Tmax (converted)
metric_name: Tmax (min)
Answers are plain numbers, in min.

What does the data say about its Tmax? Entry: `CC[C@H](C)[C@H](NC(=O)[C@H](Cc1ccc(O)cc1)NC(=O)[C@@H](NC(=O)[C@H](CCCNC(=N)N)NC(=O)[C@@H](N)CC(=O)O)C(C)C)C(=O)N[C@@H](Cc1c[nH]cn1)C(=O)N1CCC[C@H]1C(=O)O`
5.8

* * *

# assay_remarks: Pharmacokinetics after intra-duodenal injection (ID) in anesthetized rats, model mimicking enteric-coated oral dosage form, plasma LC-MS
# Assay type: in vivo, rat
# applied_conditions: rat, plasma, other: intra-duodenal injection (ID), 3 mg, pH 3.5, ID 0.3 ml C [10 mg/ml, Captopril 5 mg/ml, 10 mg/ml LLC, 400 mM Citrate pH 3.5, 150 mM NaCl]; Mean PK Value (average of individual PK parameters); read-out: AUC0-90 (converted)
metric_name: AUC(0-t) (ng·h/mL)
One number for each entry, in ng·h/mL.

What does the data say about its AUC(0-t)? Entry: `CC[C@H](C)[C@H](NC(=O)[C@H](Cc1ccc(O)cc1)NC(=O)[C@@H](NC(=O)[C@H](CCCNC(=N)N)NC(=O)[C@@H](N)CC(=O)O)C(C)C)C(=O)N[C@@H](Cc1c[nH]cn1)C(=O)N1CCC[C@H]1C(=O)O`
156

* * *

# assay_remarks: Pharmacokinetics after intra-duodenal injection (ID) in anesthetized rats, model mimicking enteric-coated oral dosage form, plasma LC-MS
# Format: in vivo, rat
# applied_conditions: rat, plasma, pH 3.5, ID 0.3 ml C [10 mg/ml, Captopril 0.5 mg/ml, 10 mg/ml LLC, 400 mM Citrate pH 3.5, 150 mM NaCl]; time point 5 min; Average; read-out: Angiotensin (1-7) concentration
# Protocol: This model mimics the release and absorption expected from an orally delivered enteric coated solid dosage form such as capsule or tablet. After extraction, the samples were then transferred to ice-cold tubes containing a protease inhibitor cocktail. […] The oral delivery of an angiotensin (1-7) peptide (e.g., TXA127) was then evaluated in a rat model that mimics the release of the peptide into the intestine by enteric-coated capsule. […]
metric_name: level at 5 min (ng/mL)
Numbers only, in ng/mL.

What does the data say about its level at 5 min? Entry: `CC[C@H](C)[C@H](NC(=O)[C@H](Cc1ccc(O)cc1)NC(=O)[C@@H](NC(=O)[C@H](CCCNC(=N)N)NC(=O)[C@@H](N)CC(=O)O)C(C)C)C(=O)N[C@@H](Cc1c[nH]cn1)C(=O)N1CCC[C@H]1C(=O)O`
628

* * *

# assay_remarks: Pharmacokinetics after intra-duodenal injection (ID) in anesthetized rats, model mimicking enteric-coated oral dosage form, plasma LC-MS
# Assay type: in vivo, rat
# applied_conditions: rat, plasma, pH 3.5, ID 0.3 ml C [10 mg/ml, Captopril 0.5 mg/ml, 10 mg/ml LLC, 400 mM Citrate pH 3.5, 150 mM NaCl]; time point 90 min; Average; read-out: Angiotensin (1-7) concentration
metric_name: level at 1.5 h (ng/mL)
Numbers only, in ng/mL.

What does the data say about its level at 1.5 h? Entry: `CC[C@H](C)[C@H](NC(=O)[C@H](Cc1ccc(O)cc1)NC(=O)[C@@H](NC(=O)[C@H](CCCNC(=N)N)NC(=O)[C@@H](N)CC(=O)O)C(C)C)C(=O)N[C@@H](Cc1c[nH]cn1)C(=O)N1CCC[C@H]1C(=O)O`
7.74

* * *

# assay_remarks: Pharmacokinetics after intra-duodenal injection (ID) in anesthetized rats, model mimicking enteric-coated oral dosage form, plasma LC-MS
# Assay type: in vivo, rat
# applied_conditions: rat, plasma, other: intra-duodenal injection (ID), 3 mg, pH 3.5, ID 0.3 ml C [10 mg/ml, Captopril 0.5 mg/ml, 10 mg/ml LLC, 400 mM Citrate pH 3.5, 150 mM NaCl]; Average (PK value of the mean concentrations); read-out: Half-Life
metric_name: Half-Life (min)
Give bare numbers, in min.

What does the data say about its Half-Life? Entry: `CC[C@H](C)[C@H](NC(=O)[C@H](Cc1ccc(O)cc1)NC(=O)[C@@H](NC(=O)[C@H](CCCNC(=N)N)NC(=O)[C@@H](N)CC(=O)O)C(C)C)C(=O)N[C@@H](Cc1c[nH]cn1)C(=O)N1CCC[C@H]1C(=O)O`
14

* * *

# assay_remarks: Pharmacokinetics after intra-duodenal injection (ID) in anesthetized rats, model mimicking enteric-coated oral dosage form, plasma LC-MS
# Type: in vivo, rat
# applied_conditions: rat, plasma, 3 mg per rat, pH 3.5, ID 0.3 ml B [10 mg/ml, 10 mg/ml LLC, 400 mM Citrate pH 3.5, 150 mM NaCl]; time point 40 min; Average; read-out: Angiotensin (1-7) concentration
metric_name: level at 40 min (ng/mL)
Answers are plain numbers, in ng/mL.

What does the data say about its level at 40 min? Entry: CC[C@H](C)[C@H](NC(=O)[C@H](Cc1ccc(O)cc1)NC(=O)[C@@H](NC(=O)[C@H](CCCNC(=N)N)NC(=O)[C@@H](N)CC(=O)O)C(C)C)C(=O)N[C@@H](Cc1c[nH]cn1)C(=O)N1CCC[C@H]1C(=O)O [Angiotensin (1-7)]
5.11

* * *

# assay_remarks: Pharmacokinetics after subcutaneous (SC) administration of angiotensin (1-7) in PBS, plasma LC-MS
# Type: in vivo, female Sprague-Dawley rats
# applied_conditions: female, Sprague-Dawley, rat, plasma, sc, 3 mg, SC 0.3 mL of 10 mg/mL A(1-7) in PBS; Average (PK value of the mean concentrations); read-out: AUC0-90 (converted)
metric_name: AUC(0-t) (ng·h/mL)
Answers are plain numbers, in ng·h/mL.

What does the data say about its AUC(0-t)? Entry: CC[C@H](C)[C@H](NC(=O)[C@H](Cc1ccc(O)cc1)NC(=O)[C@@H](NC(=O)[C@H](CCCNC(=N)N)NC(=O)[C@@H](N)CC(=O)O)C(C)C)C(=O)N[C@@H](Cc1c[nH]cn1)C(=O)N1CCC[C@H]1C(=O)O [Angiotensin (1-7)]
10.2

* * *

# assay_remarks: Pharmacokinetics after intra-duodenal injection (ID) in anesthetized rats, model mimicking enteric-coated oral dosage form, plasma LC-MS
# Format: in vivo, rat
# applied_conditions: rat, plasma, other: intra-duodenal injection (ID), 3 mg, pH 3.5, ID 0.3 ml B [10 mg/ml, 10 mg/ml LLC, 400 mM Citrate pH 3.5, 150 mM NaCl]; Average (PK value of the mean concentrations); read-out: Cmax
metric_name: Cmax (ng/mL)
One number for each entry, in ng/mL.

What does the data say about its Cmax? Entry: `CC[C@H](C)[C@H](NC(=O)[C@H](Cc1ccc(O)cc1)NC(=O)[C@@H](NC(=O)[C@H](CCCNC(=N)N)NC(=O)[C@@H](N)CC(=O)O)C(C)C)C(=O)N[C@@H](Cc1c[nH]cn1)C(=O)N1CCC[C@H]1C(=O)O`
416

* * *

# assay_remarks: Pharmacokinetics after intra-duodenal injection (ID) in anesthetized rats, model mimicking enteric-coated oral dosage form, plasma LC-MS
# Type: in vivo, rat
# applied_conditions: rat, plasma, other: intra-duodenal injection (ID), 3 mg, pH 3.5, ID 0.3 ml B [10 mg/ml, 10 mg/ml LLC, 400 mM Citrate pH 3.5, 150 mM NaCl]; Mean PK Values (average of individual PK parameters); read-out: Half-Life
metric_name: Half-Life
Dear colleague, please send the value followed by its unit.

What does the data say about its Half-Life? Entry: `CC[C@H](C)[C@H](NC(=O)[C@H](Cc1ccc(O)cc1)NC(=O)[C@@H](NC(=O)[C@H](CCCNC(=N)N)NC(=O)[C@@H](N)CC(=O)O)C(C)C)C(=O)N[C@@H](Cc1c[nH]cn1)C(=O)N1CCC[C@H]1C(=O)O`
46.4 min

* * *

# assay_remarks: Pharmacokinetics after intra-duodenal injection (ID) in anesthetized rats, model mimicking enteric-coated oral dosage form, plasma LC-MS
# Assay type: in vivo, rat
# applied_conditions: rat, plasma, other: intra-duodenal injection (ID), 3 mg, pH 3.5, ID 0.3 ml C [10 mg/ml, Captopril 0.5 mg/ml, 10 mg/ml LLC, 400 mM Citrate pH 3.5, 150 mM NaCl]; Mean PK Values (average of individual PK parameters); read-out: Tmax (converted)
metric_name: Tmax
Dear colleague, please send the value followed by its unit.

What does the data say about its Tmax? Entry: `CC[C@H](C)[C@H](NC(=O)[C@H](Cc1ccc(O)cc1)NC(=O)[C@@H](NC(=O)[C@H](CCCNC(=N)N)NC(=O)[C@@H](N)CC(=O)O)C(C)C)C(=O)N[C@@H](Cc1c[nH]cn1)C(=O)N1CCC[C@H]1C(=O)O`
7.1 min
